# TEST_SYSTEM: T1, recombinant IL-3Rα ectodomain (Homo sapiens, UniProt P26951)
# T1 construct: Immobilisation of recombinant IL-3Rα ectodomain (Sino Biologicals) was done until 761 RU; purchased Sino Biologicals
# T1 sequence (P26951 19-305 limits assumed): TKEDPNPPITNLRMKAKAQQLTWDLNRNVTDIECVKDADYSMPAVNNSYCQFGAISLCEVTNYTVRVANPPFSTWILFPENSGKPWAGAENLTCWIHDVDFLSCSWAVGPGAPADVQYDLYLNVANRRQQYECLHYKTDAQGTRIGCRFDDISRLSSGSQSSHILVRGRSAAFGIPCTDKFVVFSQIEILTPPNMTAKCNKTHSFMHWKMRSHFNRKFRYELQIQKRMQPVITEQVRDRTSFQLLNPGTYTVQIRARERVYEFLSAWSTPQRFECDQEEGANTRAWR
# PROCEDURE_DETAILS: SPR (ProteOn) on recombinant IL-3Rα ectodomain
# Assay type: binding
ASSAY_ENDPOINT: SPR - IL-3Ra ka (M⁻¹ s⁻¹)
Give bare numbers, in M⁻¹ s⁻¹.

CD123#2: anti-IL-3Ra (CD123) Nanobody, SEQ ID NO: 14 (protein) VHH: EVQLVESGGGSVQAGGSLRLSCTTSGRALNMYVMGWFRQAPGNEREFVAATSSSGGSTSYPDSVKGRFTISRDNAKNTVYLQMNSLKPEDTAAYRCAASPYVSTPTMNILEEYRYWGLGTQVTVSS: 84000

Now consider the entry below.
Prompt: Quick one: SPR - IL-3Ra ka for CD123#1: anti-IL-3Ra (CD123) Nanobody, SEQ ID NO: 15 (protein) VHH: EVQLVESGGGLVQAGGSLRLSCAASGSIFSGNVMGWYRRQAPGKEREWVAAIASGGSIYYRDSVKGRFTISRDNAKNTVYLQMNSLKPEDTAVYYCNSHPPTLPYWGLGTQVTVSS ?
Response: 1e+06
